compounds and their reported Ki
Molecular target: recombinant human NK3 receptor (Homo sapiens, UniProt P29371)
Construct: expressed in transfected cells; host or cells: HEK293 cells, transient expression; membranes
Sequence (P29371 1-465): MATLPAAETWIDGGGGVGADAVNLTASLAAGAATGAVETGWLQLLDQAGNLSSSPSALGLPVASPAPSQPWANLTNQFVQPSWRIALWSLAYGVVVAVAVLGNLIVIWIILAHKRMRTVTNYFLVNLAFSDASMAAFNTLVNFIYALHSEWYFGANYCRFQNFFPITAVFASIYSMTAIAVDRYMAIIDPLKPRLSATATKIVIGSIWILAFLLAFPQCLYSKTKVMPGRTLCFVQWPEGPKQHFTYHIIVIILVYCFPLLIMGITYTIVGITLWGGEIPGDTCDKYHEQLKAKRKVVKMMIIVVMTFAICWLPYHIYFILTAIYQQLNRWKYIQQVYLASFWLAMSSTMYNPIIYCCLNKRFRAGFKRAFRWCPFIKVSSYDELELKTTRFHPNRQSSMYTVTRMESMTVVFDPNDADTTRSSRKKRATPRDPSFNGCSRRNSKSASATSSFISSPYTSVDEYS
Test: [3H]SR142801 competition binding assay
measuredEndpoint: Ki (nM)

# compound, unitLabel, experimentalValue
rows = [
    ("CN(C(=O)Oc1ccc(F)cc1)[C@@H]1CN(C(=O)C2CCN(C(=O)C3(C(F)(F)F)CC3)CC2)C[C@H]1c1ccc(Cl)c(Cl)c1", "nM", 0.4),
    ("CCC(=O)N1CCC(C(=O)N2C[C@H](c3ccc(Cl)c(Cl)c3)[C@@H](N(C)C(=O)Oc3ccc(F)cc3)C2)CC1 (racemic)", "nM", 0.8),
    ("CN(C(=O)Oc1ccc(F)cc1)[C@@H]1CN(C(=O)C2CCN(C(=O)c3ccc(F)cn3)CC2)C[C@H]1c1ccc(Cl)cc1", "nM", 3.9),
    ("CN(C(=O)Oc1ccc(F)cc1)[C@@H]1CN(C(=O)C2CCN(C(=O)C3(C#N)CC3)CC2)C[C@H]1c1ccc(F)cc1", "nM", 26.6),
    ("CN(C(=O)Oc1ccc(F)cc1)[C@@H]1CN(C(=O)C2CCN(C(=O)OC(C)(C)C)CC2)C[C@H]1c1ccc(Cl)cc1", "nM", 3),
    ("CN(C(=O)Oc1ccc(F)cc1)[C@@H]1CN(C(=O)C2CCN(C(=O)C3CCC(=O)NC3)CC2)C[C@H]1c1ccc(F)cc1 (stereo partly shown)", "nM", 144),
    ("CN(C(=O)Oc1ccc(F)cc1)[C@@H]1CN(C(=O)C2CCN(c3ncc(F)cn3)CC2)C[C@H]1c1ccc(Cl)cc1", "nM", 4.1),
    ("CN(C(=O)Oc1ccc(F)cc1)[C@H]1CN(C(=O)C2CCN(C(=O)C3(C)CC3)CC2)C[C@@H]1c1ccc(Cl)cc1 [Example 38]", "nM", 42),
    ("CN(C(=O)Oc1ccc(F)cc1)[C@@H]1CN(C(=O)C2CCN(C(=O)C3CC(F)C3)CC2)C[C@H]1c1ccc(Cl)c(Cl)c1 (stereo partly shown)", "nM", 0.7),
    ("CN(C(=O)Oc1ccc(F)cc1)[C@@H]1CN(C(=O)C2CCN(c3ccc(F)cn3)CC2)C[C@H]1c1ccc(Cl)c(F)c1", "nM", 0.9),
    ("CCC(OC(=O)N(C)[C@@H]1CN(C(=O)C2CCN(c3ccc(C#N)cn3)CC2)C[C@H]1c1ccc(Cl)cc1)c1ccc(F)cc1 (stereo partly shown)", "nM", 64.8),
    ("CN(C(=O)Oc1ccc(F)cc1)[C@@H]1CN(C(=O)C2CCN(C(=O)C3CCOC(C)(C)C3)CC2)C[C@H]1c1ccc(Cl)c(Cl)c1 (stereo partly shown)", "nM", 1),
    ("CN(C(=O)Oc1ccc(F)cc1)[C@@H]1CN(C(=O)C2CCN(C(=O)C3(C(F)(F)F)CC3)CC2)C[C@H]1c1ccc(Cl)cc1", "nM", 2.5),
    ("CN(C(=O)Oc1ccc(F)cc1)[C@@H]1CN(C(=O)C2CCN(C(=O)c3ccc(F)cn3)CC2)C[C@H]1c1ccc(Cl)c(Cl)c1", "nM", 0.8),
    ("CC(CC(F)(F)F)OC(=O)N(C)[C@@H]1CN(C(=O)C2CCN(c3ccc(C#N)cn3)CC2)C[C@H]1c1ccc(Cl)cc1 (stereo partly shown)", "nM", 18.9),
    ("CN(C(=O)Oc1ccc(F)cc1)[C@H]1CN(C(=O)[C@H]2CC[C@H](O)CC2)C[C@@H]1c1ccc(Cl)c(Cl)c1 (racemic) [Example 37]", "nM", 0.7),
    ("CN(C(=O)Oc1ccc(F)cc1)[C@@H]1CN(C(=O)C2CCN(c3ccc(C(F)(F)F)cn3)CC2)C[C@H]1c1ccc(Cl)c(F)c1", "nM", 0.9),
    ("COCC1(C(=O)N2CCC(C(=O)N3C[C@@H](N(C)C(=O)Oc4ccc(F)cc4)[C@H](c4ccc(Cl)cc4)C3)CC2)CC1", "nM", 3.8),
    ("CN(C(=O)Oc1ccc(F)c(Br)c1)[C@@H]1CN(C(=O)C2CCN(C(=O)C3(C)CC3)CC2)C[C@H]1c1ccc(Cl)c(Cl)c1", "nM", 0.3),
    ("CN(C(=O)Oc1ccc(F)cc1)[C@@H]1CN(C(=O)C2CCN(C(=O)C3CCC(=O)NC3)CC2)C[C@H]1c1ccc(Cl)cc1 (stereo partly shown)", "nM", 15.1),
    ("CN(C(=O)OCC1CC1)[C@H]1CN(C(=O)C2CCN(C(=O)C3(C)CC3)CC2)C[C@@H]1c1ccc(Cl)c(Cl)c1 (racemic)", "nM", 33.5),
    ("CC(=O)c1ccc(N2CCC(C(=O)N3C[C@@H](N(C)C(=O)Oc4ccc(F)cc4)[C@H](c4ccc(Cl)cc4)C3)CC2)nc1", "nM", 2),
    ("CN(C(=O)Oc1ccc(F)cc1)[C@@H]1CN(C(=O)C2CCN(c3cncc(C#N)n3)CC2)C[C@H]1c1ccc(Cl)cc1", "nM", 2.6),
    ("CN(C(=O)Oc1ccc(Cl)cc1)[C@H]1CN(C(=O)C2CCN(C(=O)C3(C)CC3)CC2)C[C@@H]1c1ccc(Cl)c(Cl)c1 (racemic)", "nM", 0.6),
    ("CN(C(=O)OCCC(C)(C)C)[C@H]1CN(C(=O)C2CCN(C(=O)C3(C)CC3)CC2)C[C@@H]1c1ccc(Cl)c(Cl)c1 (racemic)", "nM", 10.3),
]

Values were extracted from patent US9226916B2.
